- System: K. pneumoniae NVT1001 strains with QnrB, QnrS or AAC(6′)-Ib-cr plasmids
- methodDescription: Etest MIC of quinolones, GyrA/ParC mutations, ΔramR and/or QnrB, QnrS or AAC(6′)-Ib-cr (Table 12)
- Assay type: cell-based
- testParameters: Klebsiella pneumoniae, no supplemental plasmid; ΔramR mutant
measure: MIC (µg/mL)
Number in µg/mL, nothing else.

Past entries and their recorded results:
CCn1cc(C(=O)O)c(=O)c2cc(F)c(N3CCNCC3)cc21 [Norfloxacin, norfloxacin] ... 2
C[C@H]1COc2c(N3CCN(C)CC3)c(F)cc3c(=O)c(C(=O)O)cn1c23 [Levofloxacin, levofloxacin] ... 1
CCn1cc(C(=O)O)c(=O)c2ccc(C)nc21 [Nalidixic acid, nalidixic acid] ... 32
CC1COc2c(N3CCN(C)CC3)c(F)cc3c(=O)c(C(=O)O)cn1c23 (centres unmarked) [Ofloxacin, ofloxacin] ... 2

q: Look up MIC for this compound: COc1c(N2C[C@@H]3CCCN[C@@H]3C2)c(F)cc2c(=O)c(C(=O)O)cn(C3CC3)c12 [Moxifloxacin, moxifloxacin]
a: 1

---

- Test system: K. pneumoniae NVT1001 strains with ESBL or AmpC β-lactamase plasmids
- methodDescription: Etest MIC of β-lactams, OmpK35/36 loss, ΔramR and/or extended-spectrum β-lactamase and AmpC β-lactamase (Table 8)
- Type: cell-based, Klebsiella pneumoniae
- testParameters: Klebsiella pneumoniae, CTX-M-15 on pACYC177; ΔramRΔ35 (ΔramRΔompK35 mutant)
measure: MIC (µg/mL)
Write the answer as a number in µg/mL, unit excluded.

C[C@@H](O)[C@H]1C(=O)N2C(C(=O)O)=C(S[C@@H]3CN[C@H](CNS(N)(=O)=O)C3)[C@H](C)[C@H]12 [Doripenem] ... 0.125

Turning now to a further record.
q: Could you tell me which MIC is on file for C[C@@H](O)[C@H]1C(=O)N2C(C(=O)O)=C(S[C@@H]3CN[C@H](C(=O)N(C)C)C3)[C@H](C)[C@H]12 [Meropenem] ?
a: 0.25

---

- Tested on: K. pneumoniae NVT1001 strains with carbapenemase plasmids
- methodDescription: Etest MIC of β-lactams, OmpK35/36 loss, ΔramR and/or carbapenemase (Table 9)
- Assay type: cell-based, Klebsiella pneumoniae
- testParameters: Klebsiella pneumoniae, KPC-2 on pACYC177; Δ35/36 (ΔompK35/36 mutant)
Reported values of MIC for individual entries

q: Reported MIC for CC(C)(O/N=C(\C(=O)N[C@@H]1C(=O)N2C(C(=O)[O-])=C(C[n+]3ccccc3)CS[C@H]12)c1csc(N)n1)C(=O)O [Ceftazidime] : what is it?
a: 256 µg/mL

q: Which MIC reading was recorded for the molecule CO/N=C(\C(=O)N[C@@H]1C(=O)N2C(C(=O)[O-])=C(C[N+]3(C)CCCC3)CS[C@H]12)c1csc(N)n1 [Cefepime] ?
a: > 256 µg/mL

q: Given the entry C[C@@H](O)[C@H]1C(=O)N2C(C(=O)O)=C(S[C@@H]3CN[C@H](C(=O)Nc4cccc(C(=O)O)c4)C3)[C@H](C)[C@H]12 [Ertapenem] , report its measured MIC.
a: > 32 µg/mL

q: What value of MIC has been reported for the following molecule? C[C@@H](O)[C@H]1C(=O)N2C(C(=O)O)=C(S[C@@H]3CN[C@H](C(=O)N(C)C)C3)[C@H](C)[C@H]12 [Meropenem]
a: > 32 µg/mL

q: Find the recorded MIC belonging to CO/N=C(\C(=O)N[C@@H]1C(=O)N2C(C(=O)O)=C(COC(C)=O)CS[C@H]12)c1csc(N)n1 [Cefotaxime] and report it.
a: > 256 µg/mL

q: Endpoint output: MIC of CC(=O)OCC1=C(C(=O)O)N2C(=O)[C@@H](NC(=O)Cc3cccs3)[C@H]2SC1 [Cephalothin] . Value?
a: > 256 µg/mL

q: What measured MIC goes with CO/N=C(\C(=O)N[C@@H]1C(=O)N2C(C(=O)O)=C(COC(N)=O)CS[C@H]12)c1ccco1 [Cefuroxime] ?
a: > 256 µg/mL

q: Endpoint output: MIC of C[C@@H](O)[C@H]1C(=O)N2C(C(=O)O)=C(S[C@@H]3CN[C@H](CNS(N)(=O)=O)C3)[C@H](C)[C@H]12 [Doripenem] . Value?
a: > 32 µg/mL

q: Reported MIC, molecule CCO/N=C(\C(=O)N[C@@H]1C(=O)N2C(C(=O)[O-])=C(Sc3nc(-c4cc[n+](C)cc4)cs3)CS[C@H]12)c1nsc(N)n1 [Ceftaroline] : ____
a: > 256 µg/mL

q: MIC for CO[C@@]1(NC(=O)Cc2cccs2)C(=O)N2C(C(=O)O)=C(COC(N)=O)CS[C@@H]21 [Cefoxitin] ?
a: > 256 µg/mL

q: I would be grateful if you could share the reported MIC for C[C@H]1[C@H](NC(=O)/C(=N\OC(C)(C)C(=O)O)c2csc(N)n2)C(=O)N1S(=O)(=O)O [Aztreonam] .
a: > 256 µg/mL

q: Would you kindly share the measured MIC for C[C@@H](O)[C@H]1C(=O)N2C(C(=O)O)=C(SCCN=CN)C[C@H]12 [Imipenem] ?
a: > 32 µg/mL
